# Tested on: Ceratobasidium cereale
# assay summary: Antifungal activity against Ceratobasidium cereale at 50 ug/ml by poisoned food technique
# Assay type: functional
Please respond with rule met when measured Activity is strictly beneath 20%, and with rule not met in all other cases.

Query: Problem: For the compound Cc1cc(O)no1 , is Activity under 20%?
Response: rule not met

Query: Is Activity of COc1cc(OC)nc(NCc2cnc(Cl)s2)n1 strictly below 20%?
Response: rule met

Query: Is the reported Activity for COc1cc(OC)nc(NCc2ccc(Cl)nc2)n1 strictly below 20%?
Response: rule met

Query: Item COc1ccc(C(=CC(=O)N2CCOCC2)c2ccc(Cl)cc2)cc1OC : Activity beneath 20%, strictly?
Response: rule not met

Query: Please determine if COC(=O)Nc1nc2ccccc2[nH]1 is below 20% in terms of Activity.
Response: rule not met

Query: Please indicate whether the reported Activity of Cc1cc(OC(=O)c2ccc(F)cc2)nc(C(C)C)n1 is strictly below 20%.
Response: rule met

Query: Check if Activity falls below 20% for Cc1cc(OC(=O)c2ccc(Cl)cc2)nc(C(C)C)n1 .
Response: rule met

Query: # TODO verify Activity < 20% strictly for this compound: Cc1cc(C)nc(Nc2ccccc2)n1
Response: rule not met

Query: For Cc1cc(OCc2cnc(Cl)s2)nc(C(C)C)n1 , is the recorded Activity below the cut-off of 20%?
Response: rule not met

Query: Lab note: Activity threshold 20%. Does this compound come in strictly under it? Cc1cc(OCc2ccc(Cl)nc2)nc(C(C)C)n1
Response: rule not met

Query: # TODO verify Activity < 20% strictly for this compound: Cc1cc(NC2CCCCC2)nc(C(C)C)n1
Response: rule met

Query: For Cc1cc(Nc2ccccc2)nc(C(C)C)n1 , is the recorded Activity below the cut-off of 20%?
Response: rule met

Query: In plain terms, does COc1cc(C(=O)Oc2cc(C)nc(C(C)C)n2)cc(OC)c1OC come in under 20% for Activity?
Response: rule met

Query: Just wondering, is Activity of Cc1cc(Nc2ccc(OC(F)(F)F)cc2)nc(C(C)C)n1 below 20%?
Response: rule not met

----------
# Test system: Bipolaris maydis
# assay summary: Antifungal activity against Cochliobolus heterostrophus at 50 ug/ml by poisoned food technique
# Type: functional
reported property: Activity (%)
// units = %; emit number, no label

Query: May I ask what Activity has been recorded for COc1cc(OC)nc(NCc2cnc(Cl)s2)n1 ?
Response: 17.4

Query: Request the reported Activity associated with COC(=O)Nc1nc2ccccc2[nH]1
Response: 69.6

Query: If you can, please state the reported Activity value of Cc1cc(C)nc(Nc2ccccc2)n1 .
Response: 91.3

Query: Record request: Activity value, item Cc1cc(O)no1
Response: 34.8

----------
Please respond with reported Activity for every item in the list.
# System: Fusarium fujikuroi
# assay summary: Antifungal activity against Fusarium fujikuroi at 50 ug/ml by poisoned food technique
# Assay type: functional

Query: Could you share which Activity value was measured for Cc1cc(OCc2ccc(Cl)nc2)nc(C(C)C)n1 ?
Response: 20%

Query: Using the record for Cc1cc(O)no1 , report its Activity.
Response: 40%

Query: Which value of Activity has been reported for Cc1cc(OC(=O)c2ccc(F)cc2)nc(C(C)C)n1 in the records?
Response: 46.7%

Query: Give the measured Activity of Cc1cc(NC2CCCCC2)nc(C(C)C)n1 .
Response: 13.3%

Query: Please give the measured Activity for this compound: Cc1cc(C)nc(Nc2ccccc2)n1
Response: 20%

Query: Need Activity of COc1ccc(/C(=C\C(=O)N2CCOCC2)c2ccc(F)cc2)cc1OC , thanks.
Response: 13.3%
